The measured values listed here are drawn from ChEMBL document CHEMBL1129240.

- Assay Protocol: Cytotoxic concentration required to reduce CEM cell viability by 50%
- Assay type: cell-based
- Condition Context: human, CCRF-CEM (CEM) cells
Measurement Kind: CC50

Ask: Return reported CC50; argument: "COC(=O)c1nc2ccccn2c1CSCCO"
Result: 87 µg/mL

Ask: Here is the next compound: "CCOC(=O)CSCc1cnc2cc(C)ccn12"
Result: 37 µg/mL

Ask: Entry "Cc1c(Br)cn2c(CSCc3ccccc3)cnc2c1Br" please
Result: 5 µg/mL

Ask: Also need Cc1cccc2ncc(CSCC(O)CO)n12 (centres undefined) , thanks.
Result: 45 µg/mL

Ask: Okay, and "Cc1cccc2ncc(CSCCO)n12" ?
Result: 22 µg/mL

Ask: Next record, please: CC(O)CSCc1cnc2ncccn12 (centres undefined)
Result: > 100 µg/mL

Ask: Input "OCCCSCc1cnc2c(Cl)cc(C(F)(F)F)cn12"
Result: 27 µg/mL

Ask: How about this compound: "CCSCc1cnc2cc(C)ccn12"
Result: 11 µg/mL

Ask: "Cc1cccc2ncc(CSCc3ccccc3)n12" , same question.
Result: 9.9 µg/mL

Ask: Can you handle "Cc1cccn2c(CSCc3ccccc3)cnc12" next?
Result: 0.5 µg/mL

Ask: Now consider "Cc1ccn2c(CSCc3ccccc3)cnc2c1" .
Result: 3.1 µg/mL

Ask: // same read-out, input: "Cc1cccn2c(CSCCO)cnc12"
Result: 9.5 µg/mL

Ask: What do you have for "Cc1ccn2c(CSCCCO)cnc2c1" ?
Result: 17 µg/mL

Ask: Also check Cc1ccn2c(CSCC(C)O)cnc2c1 (centres undefined)
Result: 60 µg/mL

Ask: Then "OCCSCc1cnc2ccccn12" ?
Result: 29 µg/mL

Ask: Now consider "Cc1cn([C@H]2C[C@H](N=[N+]=[N-])[C@@H](CO)O2)c(=O)[nH]c1=O" and answer again.
Result: > 125 µg/mL

Ask: Would you mind doing Cc1ccn2c(CSCC(O)CO)cnc2c1 (centres undefined) as well?
Result: > 100 µg/mL

Ask: // query: "Cc1c(Br)c(C)n2c(CSCCO)cnc2c1Br"
Result: 17 µg/mL

Ask: Again, but for "Cc1c(Br)c(C)n2c(CSCc3ccccc3)cnc2c1Br"
Result: 35 µg/mL

Ask: Consider next the compound Cc1cccc2ncc(CSCC(C)O)n12 (centres undefined) in the same way.
Result: 27 µg/mL

Ask: Another compound to look at: "Cc1c(Br)cn2c(CSCCO)cnc2c1Br"
Result: 37 µg/mL

Ask: Note, next up: "CCSCc1cnc2c(C)cccn12"
Result: 4.1 µg/mL

Ask: Repeat with "c1ccc(CSCc2cnc3ncccn23)cc1"
Result: 4.2 µg/mL

Ask: Let us now turn to "O=c1[nH]cnc2c1ncn2[C@H]1CC[C@@H](CO)O1"
Result: > 100 µg/mL
